Recorded values, source ChEMBL document CHEMBL1697781.

Test system: Hepatotoxicity
Experiment notes: FDA HLAED, liver enzyme composite activity
Condition details: human
Measure: Composite Activity - Score

Molecule	Measure	Result
COc1cc(N)c(Cl)cc1C(=O)NC1CCN(CCCOc2ccc(F)cc2)CC1OC (stereo not given) [CISAPRIDE]	Composite Activity - Score	Inactive
COCC1=C(C(=O)OC(C)OC(=O)OC(C)C)N2C(=O)[C@@H](NC(=O)/C(=N\OC)c3csc(N)n3)[C@H]2SC1 (stereo not given in full)	Composite Activity - Score	Inactive
CC[C@@]1(O)C(=O)OCc2c1cc1n(c2=O)Cc2cc3c(CN(C)C)c(O)ccc3nc2-1	Composite Activity - Score	Inactive
